Values were extracted from PubChem BioAssay.

target: Plasmodium falciparum protein kinase 6 (PK6, PF3D7_1337100) (UniProt Q8IDW1); assay: PfPK6 kinase inhibitors, biochemical, TCAMS library (AID 1159586); settings: recombinant PfPK6, Kinase-Glo ATP depletion luminescence
Measured potencies and affinities stand elsewhere. Activity calls are given as the source filed them. No rule for the calls is given here.
readoutName: outcome

Sample records with outcome:
CN(C)c1ccc(-c2nc3ccc(N)cc3[nH]2)cc1 ... inactive
CC(=O)c1sc(NC(=O)Nc2ccc(C)cc2C)nc1C ... inactive
CC(C)(C)OC(=O)c1c(NC(=O)/C=C/c2ccc(O)c(O)c2)sc2c1CCCC2 ... inactive
COc1cc2c(cc1NC(=O)CN1CCN(C(=O)c3ccco3)CC1)oc1ccccc12 ... inactive
OC1CCCN(Cc2ccc(-c3cccc(-c4nc5ccc(F)cc5[nH]4)c3)cc2)C1 (centres undefined) ... inactive
Fc1ccc2nc(-c3cccc(-c4ccc(CN5CCN(c6ccncc6)CC5)cc4)c3)[nH]c2c1 ... inactive
O=S(=O)(Nc1cccc(CCN2CCCCC2CCN2CCCC2)c1)c1ccc(Oc2ccccc2)cc1 (centres undefined) ... inactive
Cc1cccc2[nH]c(-c3ccc(-c4ccc(CN5CCCCC5)cc4)cc3)nc12 ... inactive

Lookup: What measured outcome goes with O=C(c1cccc(-c2cccc(-c3nc4ccccc4[nH]3)c2)c1)N1CCCCC1CN1CCC(O)C1 (centres undefined) ?
Found: inactive

---

Listing of entries alongside the reported growth inhibition.
test: inhibition of 3D7 malaria parasite growth – strain 3D7 (AID 2306);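 also: 0% = DMSO wells and 100% = chloroquine plus artemisinin control wells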; conditions: P. falciparum 3D7 erythrocytic growth, LDH absorbance, 72 h; at 2 µM; active compounds read high
Calls of active or inactive are those of the source. No rule for the calls is given here.

Here is how some compounds turned out for growth inhibition.
NC1=NC(c2ccccc2)(c2ccccc2)C(=O)N1CCOc1ccccc1 ... 90% (active)
COc1ccc(NC(=O)NC2CCN(c3ccnc4cc(Cl)ccc34)CC2)cc1 ... 83% (active)

Lookup: Need growth inhibition of NC1CCN(Cc2cccc(-c3cccc(-c4nc5ccccc5[nH]4)c3)c2)C1 (stereo not drawn) , thanks.
Found: 100% (active)

Lookup: Give the measured growth inhibition of CC(C)(C)OC(=O)NCc1ccc(Nc2nnc(-c3ccc(OCC(=O)NCc4ccc(C(C)(C)C)cc4)c([N+](=O)[O-])c3)o2)cc1 .
Found: 96% (active)

Lookup: If you can, please state the reported growth inhibition value of COc1ccccc1CCCON1C(N)=NC(N)=NC1(C)C .
Found: 95% (active)

Lookup: Given the entry COc1c(C2CCN(CCCCNC(=O)c3ccc(-c4ccc(C(F)(F)F)cc4)c(C(=O)OC(C)C)c3)CC2)ccc2c1CCCC2 , report its measured growth inhibition.
Found: 90% (active)

---

target: Plasmodium falciparum protein kinase 6 (PK6, PF3D7_1337100) (UniProt Q8IDW1); experiment: PfPK6 kinase inhibitors, biochemical, TCAMS library (AID 1159586); conditions: recombinant PfPK6, Kinase-Glo ATP depletion luminescence
Measured potencies and affinities stand elsewhere. Activity calls are given as the source filed them. No rule for the calls is given here.
readoutName: outcome

// worked examples, outcome included
CCc1ccc(CN2CCC(CNC(=O)c3cc(-c4cccc(F)c4)cs3)C2)cc1 (stereo not given) ... inactive
FC(F)(F)COc1ccc(CNCCCCCCNCc2ccc(OCC(F)(F)F)c3ccccc23)c2ccccc12 ... inactive
CN1CCC(NCc2cccc(-c3ccc(S(=O)(=O)NCCc4ccccn4)cc3)c2)CC1 ... inactive
O=C(NC1CCN(c2ccnc3cc(Cl)ccc23)C1)c1cccc(F)c1 (stereo not given) ... inactive

Lookup: Endpoint output: outcome of COC(=O)c1cc(C(O)CNC(C)CCc2cccc(F)c2)ccc1O (stereo not given) . Value?
Found: inactive

---

experiment: inhibition of 3D7 malaria parasite growth – strain 3D7 (AID 2306);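 also: 0% = DMSO wells and 100% = chloroquine plus artemisinin control wells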; settings: P. falciparum 3D7 erythrocytic growth, LDH absorbance, 72 h; at 2 µM; active compounds read high
readoutName: growth inhibition (%)
Reply with just the number (in %).

Completed entries (count: 6):
Cc1ccc(O)cc1Nc1ccnc2cc(-c3nccs3)ccc12 ... 102
CN1CCN(c2ccnc3ccc(NC(=O)c4ccc(Cl)c(Cl)c4)cc23)CC1 ... 100
CO/C(=C/C=C/c1cc2cc(Cl)c(Cl)cc2[nH]1)C(=O)NC1CC(C)(C)N(C)C(C)(C)C1 ... 99
CN1CCN(Cc2nc(-c3ccc4c(Nc5ccc(F)c(O)c5)ccnc4c3)cs2)CC1 ... 100
NC(N)=Nc1nc(-c2cccc(NCCCCCCCCON3C(N)=NC(N)=NC34CCCCC4)c2)cs1 ... 97
COc1cc(Nc2nccc(N3CCC(NC(=O)c4cccc(NC(C)=O)c4)C3)n2)cc(OC)c1OC (stereo not given) ... 98

Switching to the query record.
Lookup: Which growth inhibition value is on record for c1ccc(-c2[nH]ncc2Nc2ccnc3ccccc23)nc1 ?
Found: 100

---

assay: inhibition of 3D7 malaria parasite growth – strain 3D7 (AID 2306);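 also: 0% = DMSO wells and 100% = chloroquine plus artemisinin control wells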; conditions: P. falciparum 3D7 erythrocytic growth, LDH absorbance, 72 h; at 2 µM; active compounds read high
Active and inactive are the calls of the source. No rule for the calls is given here.
# reported growth inhibition; entries follow

O=C(NC(=Cc1cccc([N+](=O)[O-])c1)c1nc2ccccc2[nH]1)c1cccc(Br)c1 ... 85% (active)
c1cncc(CN2CCN(Cc3ccc(-c4ccc(-c5nc6ccccc6[nH]5)s4)cc3)CC2)c1 ... 97% (active)
Clc1ccc(CNCCCCCCNCc2ccc(Cl)cc2)cc1 ... 96% (active)
FC(F)(F)c1ccc2nccc(NN=Cc3ccccc3)c2c1 ... 92% (active)
Cc1cc2nc(-c3cc(Br)ccc3O)c(-c3cc(Br)ccc3O)nc2cc1C ... 96% (active)

Lookup: Using the record for O=C(Nc1ccc([N+](=O)[O-])cc1)Nc1nc2ccc(Cl)cc2s1 , report its growth inhibition.
Found: 92% (active)

Lookup: GET /values?readout=growth inhibition&item= O=C(Nc1ccc(-c2cncc(NCCCN3CCCC3)c2)cc1)c1ccccc1
Found: 94% (active)

Lookup: Bench note: what growth inhibition did CCCOc1ccc(-c2nonc2NC(=O)c2ccccc2OC)cc1OCCC show?
Found: 98% (active)

Lookup: Fill blank: measured growth inhibition of the compound COc1cc(-n2cnc3cc(-c4ccc(Cl)cc4)sc3c2=O)ccc1OCCN1CCC(c2cccc(NC(C)=O)c2)CC1 is ____.
Found: 99% (active)

Lookup: Entry CC(C)(C)c1ccc(CNC(=O)/C=C/c2ccc(-c3nc4ccc(C(C)(C)C)cc4[nH]3)cc2)cc1 has what growth inhibition?
Found: 100% (active)

Lookup: Given the compound Cc1[nH]c(C)c(-c2ccc(CCc3ccc(C(F)(F)F)cc3)nc2)c(=O)c1Cl , what is its reported growth inhibition?
Found: 97% (active)

Lookup: May I ask what growth inhibition has been recorded for CN1CCN(c2ccc(-c3cccc(NC(=O)c4cccc([N+](=O)[O-])c4)c3)nn2)CC1 ?
Found: 99% (active)

Lookup: GET /values?readout=growth inhibition&item= CC(C)c1ccc(NC(=O)N2CCc3ccc(OCCN(C(C)C)C(C)C)cc32)c(Br)c1
Found: 86% (active)

Lookup: # lookup: growth inhibition of O=C(CSc1n[nH]c(=O)n1Cc1ccccc1)Nc1ccccc1-c1ccccc1
Found: 89% (active)

Lookup: For Cc1cccc2[nH]c(-c3cccc(-c4ccc(NC(=O)Nc5ccc(F)c(F)c5F)cc4)c3)nc12 , what is its reported growth inhibition?
Found: 101% (active)

Lookup: Using the record for CC(C)CNCc1ccc(-c2cccc(CNc3ccc4ncccc4c3)c2)cc1 , report its growth inhibition.
Found: 96% (active)

Lookup: GET /values?readout=growth inhibition&item= COc1ccc2c(-c3ccccc3)noc2c1
Found: 98% (active)

---

test: antimalarial activity against Dd2 strain (AID 2302);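 also: 0% = DMSO untreated growth and 100% = chloroquine plus artemisinin killed control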; conditions: P. falciparum Dd2 in RBCs, LDH growth readout, 72 h; at 2 µM; active compounds read high
Calls of active or inactive are those of the source.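 How the source made its calls: active means growth inhibition above 50% at the single 2 µM test dose, taken to imply half-maximal potency below 2 µM; inactive means the rest.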
Overview of reported growth inhibition across a group of compounds:

O=C(/C=C/c1ccc(Cl)c(Cl)c1)NCCCCCN1CCC(CCNC(=O)c2snnc2-c2ccccc2)CC1 ... 1% (inactive)
COc1ccc(CN2CCN(CCCCNC(=O)c3ccc(NC(=O)c4ccc(Cl)cc4)cc3)CC2)c(OC)c1 ... 0% (inactive)

Lookup: Quick one: growth inhibition for O=C(/C=C/c1ccsc1)N1CCC(CCN2CCC(c3c[nH]c4ccccc34)CC2)CC1 ?
Found: 24% (inactive)

Lookup: Look up growth inhibition for this compound: CCC(CC)C(CC(=O)NC(C)(C)CCc1ccccc1OC)Nc1ccc(C#N)c2ccccc12 (centres undefined)
Found: 91% (active)

Lookup: What value of measured growth inhibition is listed for CN1CCC(C(=O)N(Cc2ccc(-c3ccc(CNCCc4ccc(S(C)(=O)=O)cc4)cn3)cc2)C2Cc3ccccc3C2)CC1 ?
Found: 49% (inactive)

Lookup: Query (compound): Cc1ccc(C)c(CN2CCC(CNC(=O)c3cc4ccc5cccnc5c4[nH]3)CC2)c1 ; field requested: growth inhibition
Found: 10% (inactive)

Lookup: Look up growth inhibition: CCNc1cc(C(=O)N[C@@H](Cc2ccc(F)c(F)c2)[C@H](O)CNC2CCCCC2)cc(N2CCCCS2(=O)=O)c1
Found: 84% (active)

Lookup: Look up growth inhibition: CN1CCN(c2cc(-c3cccc(C(F)(F)F)c3)nc(-c3ccncc3)n2)CC1
Found: 98% (active)

Lookup: Reported growth inhibition for N[C@@H](CCNC1CCN(c2cccc(C(F)(F)F)c2)CC1)Cc1ccc(F)c(F)c1 : what is it?
Found: 69% (active)

Lookup: Which growth inhibition reading was recorded for the compound Cc1ccccc1CNc1nccc(NCCC(=O)Nc2ccccc2)n1 ?
Found: 15% (inactive)

Lookup: // lookup growth inhibition for COc1cc2nc(Nc3ccc(Oc4ccccc4)cc3)nc(Nc3ccc(Oc4ccccc4)cc3)c2cc1OC
Found: 45% (inactive)

Lookup: Look up growth inhibition: O=C(O)c1cccc2c(-c3ccncc3)cccc12
Found: 1% (inactive)

Lookup: Can you share its growth inhibition? I mean this compound: Cc1ccc(/C=C/C(=O)NC2CCC(N3CCC(c4ccccc4C)CC3)CC2)cc1C (centres undefined)
Found: 43% (inactive)

Lookup: Given the compound Ic1cc(Nc2ncnc3ccsc23)ccc1OCc1ccccc1 , what is its reported growth inhibition?
Found: 81% (active)

Lookup: growth inhibition for CCCn1cc2c(ccc3nc(N)nc(N)c32)n1 ?
Found: 0% (inactive)

Lookup: Consider the compound CN(C)Cc1ccc(-c2cccc(NC(=O)c3cccc(Cl)c3)c2)cc1 and give its measured growth inhibition.
Found: 12% (inactive)

Lookup: I would be grateful if you could share the reported growth inhibition for Cc1ccc(Nc2nc(C)cc(NC3CCCC3)n2)cc1 .
Found: 89% (active)

Lookup: Could you tell me which growth inhibition is on file for CN1CCN(Cc2ccc(-c3ccc4c(Nc5cc(O)c(F)cc5Cl)ccnc4c3)o2)CC1 ?
Found: 99% (active)

Lookup: State the recorded growth inhibition for this entry: CC(C)(C)N1CCC(N(Cc2ccc(-c3ccc(C(F)(F)F)cc3)cc2)C(=O)Cn2c(CCc3cccc(F)c3F)cc(=O)c3ccccc32)CC1
Found: 97% (active)
